Data origin: paper PMC12104086

# tested_system: T1, recombinant human high mobility group box 1 (human, UniProt P09429 1-215)
# T1 chain: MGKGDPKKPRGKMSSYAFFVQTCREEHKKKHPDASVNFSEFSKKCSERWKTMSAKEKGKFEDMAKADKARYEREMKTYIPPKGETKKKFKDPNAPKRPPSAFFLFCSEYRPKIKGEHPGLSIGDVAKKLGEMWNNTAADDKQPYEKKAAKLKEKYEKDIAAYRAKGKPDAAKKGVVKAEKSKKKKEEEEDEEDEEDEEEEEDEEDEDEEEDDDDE
# assay_text: SPR
readout_type: Kd (nM)

# binder, scale_unit, readout_value
data = [
    ("GNFNSSNIMKTCLQNRGD [opsonic peptide 18]", "nM", 3.9),
]
